Numbers sourced from ChEMBL document CHEMBL1157512.

target: Protease (Human immunodeficiency virus 1, UniProt Q9YQ12)
Sequence (Q9YQ12 whole entry): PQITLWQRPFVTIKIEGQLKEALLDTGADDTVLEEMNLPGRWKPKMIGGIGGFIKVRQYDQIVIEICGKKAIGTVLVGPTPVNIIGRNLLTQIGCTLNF
assay_notes: Inhibition of recombinant HIV1 protease
measurement_name: IC50 (µM)

Solved entries (count: 3):
(Q) For COC(=O)CC[C@]1(COC(C)=O)C2=C(CC[C@H]1C(C)(C)O)[C@]1(C)CC[C@H]([C@H](C)[C@@H](C/C=C(/C)C(=O)O)OC(C)=O)[C@@]1(C)CC2 , what is its reported IC50?
(A) 14.5

(Q) Thanks! And CC1=CC[C@H]([C@@H](C)[C@H]2CC[C@@]3(C)C4=C(C=C5C=CC(=O)OC(C)(C)[C@@H]5CC4)CC[C@]23C)OC1=O ?
(A) 10.8

(Q) Thanks! And CC(=O)O[C@@H]1C[C@H]([C@H](C)[C@@H]2OC(=O)C(C)=C[C@H]2O)[C@@]2(C)CCC3=C(CC[C@@H]4C(=C3)C=CC(=O)OC4(C)C)[C@]12C ?
(A) 58.3

(P) CC(=O)OC[C@]12CC[C@H](O)C(C)(C)[C@@H]1CCC1=C2CC[C@]2(C)[C@@H]([C@H](C)C(O)C/C=C(/C)CO)CC[C@@]12C (stereo partly drawn)
(Q) COC(=O)CC[C@]1(COC(C)=O)C2=C(CC[C@H]1C(C)(C)O)[C@]1(C)CC[C@H]([C@H](C)[C@H]3CC=C(C)C(=O)O3)[C@@]1(C)CC2
(R) CC(=O)O[C@@H]1C[C@H]([C@H](C)[C@H]2CC=C(C)C(=O)O2)[C@@]2(C)CCC3=C(CC[C@@H]4C(=C3)C=CC(=O)OC4(C)C)[C@]12C
(S) CC(=O)O[C@@H]1C[C@H]([C@H](C)[C@H]2CC=C(C)C(=O)O2)[C@@]2(C)CCC3=C(CC[C@]4(O)C(=C3)C=CC(=O)OC4(C)C)[C@]12C
(Q) Hi! Can you put these in order of IC50, lowest number first? To answer, arrange all of the labels according to the requested order.
(A) S, R, Q, P
